Recorded values, source the supplement of paper PMC10567573.

B1: KLHDC10 (parent)
chain: PSLLELAWEKLLAAFPNLANLSRT

variants of: B1; assay: protein stability index of a GFP-peptide fusion (GPS, HEK-293T) (PSI 1-6); higher = more stable; conditions: c terminus: a fixed tail appended;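 also: lentivirally expressed fusions sorted by FACS into six bins by GFP to DsRed ratio, PSI derived from sequencing read proportions per bin multiplied by bin number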
Assignment: determine reported protein stability index for the given variants.
Keep the answer to the number alone.

*Q* Entry L4D has what protein stability index?
*A* 2.07

*Q* And for R23Y ?
*A* 1.67

*Q* And the next one, R23F ?
*A* 1.96

*Q* Next variant up: A13H
*A* 2.83

*Q* Field entry: L11W
*A* 2.06

*Q* Please give the result for A13W too.
*A* 1.64

*Q* Same read-out for F15A ?
*A* 2.23

*Q* Can you handle L12K next?
*A* 3.22

*Q* And for L18N ?
*A* 2.97

*Q* And the next one, S22K ?
*A* 2.57

*Q* Please give the result for A19L too.
*A* 1.8

*Q* # repeat for T24N
*A* 2.23

*Q* Please give the result for K10P too.
*A* 1.64

*Q* What about A7D ?
*A* 2.14

*Q* Continue with A19F
*A* 2

*Q* # repeat for A13D
*A* 2.12

*Q* Repeat with A13C
*A* 2.01

*Q* Again, but for S22L
*A* 2.4

*Q* Try N17D next.
*A* 2.03

*Q* Repeat for the following variant: L21R
*A* 2.38

*Q* Please give the result for N17G too.
*A* 3.66

*Q* Now this one: N17L
*A* 2.15

*Q* Here is the next variant: N20S
*A* 2.59

*Q* Follow-up item: T24E
*A* 2.22

*Q* Please do the same for A19S as well.
*A* 2

*Q* Cool, now F15K
*A* 1.78

*Q* Entry L11K please
*A* 1.62

*Q* Input A13Y
*A* 1.85

*Q* And for F15N ?
*A* 2.31

*Q* Now give it for L3Q too.
*A* 2.29

*Q* Also, R23D please.
*A* 1.28

*Q* Repeat with A19R
*A* 2.4

*Q* Same question for P1K please.
*A* 2.79

*Q* Now consider P1M and answer again.
*A* 1.94

*Q* // query: F15Y
*A* 1.7

*Q* What would you report for F15G ?
*A* 2.08

*Q* Repeat for the following variant: K10A
*A* 1.84

*Q* Could you do the same for L3G , please?
*A* 1.56

*Q* Next up: A19D
*A* 2.46

*Q* # repeat for A7F
*A* 1.86

*Q* What about this variant? E9V
*A* 1.72

*Q* Input L4C
*A* 3.05

*Q* # iterate: E5D
*A* 2.88

*Q* Next: L3T
*A* 1.97

*Q* Now the variant W8Y
*A* 2.04

*Q* Now consider L12T and answer again.
*A* 2.37

*Q* Okay, and A14N ?
*A* 2.2

*Q* What do we get for A7Y ?
*A* 2.08

*Q* Now consider L6F .
*A* 2.01

*Q* Then L6H ?
*A* 1.59

*Q* Another variant to check: L4G
*A* 2.58

*Q* What would you report for L4K ?
*A* 3.92

*Q* Also check E9I
*A* 2.07

*Q* Note, next up: W8K
*A* 2.61

*Q* Would you mind doing L3Y as well?
*A* 1.86

*Q* Can you handle W8T next?
*A* 1.94

*Q* Similarly, L18T ?
*A* 1.96

*Q* Also check W8F
*A* 2.56

*Q* And L12D ?
*A* 3.04

*Q* Same for N20C
*A* 2.68

*Q* Please answer likewise for N20Q
*A* 2.09

*Q* Please answer likewise for A14P
*A* 2.07

*Q* Also F15C ?
*A* 1.78

*Q* Would you kindly repeat that for P1N ?
*A* 2.17

*Q* Another variant to check: N20W
*A* 2.04

*Q* Next: N20Y
*A* 2.22

*Q* Also A14G , if possible.
*A* 1.81

*Q* How about this variant: A13R
*A* 1.8

*Q* And the next one, N20L ?
*A* 1.77

*Q* Moving on to the next variant: L12N
*A* 2.32

*Q* Subsequent entry: P1I
*A* 1.92

*Q* Can you handle L4W next?
*A* 2.53

*Q* What about L12A ?
*A* 2.52
